Measured values drawn from PubChem BioAssay AID2060906 for this set.

- System: 485176-168-R4-J1-PDC complex spheroid growth
- Procedure Text: Anticancer human tumor 485176-168-R4-J1-PDC patient-derived pancreatic adenocarcinoma cell line growth inhibition [RAS]; active = viability on the fitted dose curve at most 10% of control; inactive = the rest
- Condition Info: second compound 0.1 µM; first compound 1 µM
- From the text: RAS pathway inhibitors in Combinations in Complex Spheroids A high-throughput screen of multi-cell type tumor spheroids was designed to identify active combinations of RAS pathway inhibitors and targeted small molecules. Complex spheroids include a stromal component modeled by human endothelial cells (HUVEC) and fibroblasts modeled by human mesenchymal stem cells (MSCs). […] Compounds. […] If the clinical Cmax for an agent had not been determined, the highest concentration tested was 10 microM. […]
Write down one outcome, taken from active, inactive

Use the examples below as a reference point.
C[C@@H](NC(=O)c1ncnc(N)c1Cl)c1ncc(C(=O)Nc2cc(C(F)(F)F)c(Cl)cn2)s1 + C#Cc1c(F)ccc2cc(O)cc(-c3ncc4c(N5CC6CCC(C5)N6)nc(OCC56CCCN5CC(F)C6)nc4c3F)c12 | inactive
CC(=O)OC12COC1CC(O)C1(C)C(=O)C(O)C3=C(C)C(OC(=O)C(O)C(NC(=O)OC(C)(C)C)c4ccccc4)CC(O)(C(OC(=O)c4ccccc4)C21)C3(C)C (stereo not given) + C#Cc1c(F)ccc2cc(O)cc(-c3ncc4c(N5CC6CCC(C5)N6)nc(OCC56CCCN5CC(F)C6)nc4c3F)c12 | inactive
O=C(c1ccc(F)c(F)c1Nc1ccc(I)cc1F)N1CC(O)([C@@H]2CCCCN2)C1 + C#Cc1c(F)ccc2cc(O)cc(-c3ncc4c(N5CC6CCC(C5)N6)nc(OCC56CCCN5CC(F)C6)nc4c3F)c12 | inactive
Cc1nc(N2CCC3(CC2)COC(C)C3N)c(CO)nc1Sc1ccnc(N)c1Cl (stereo not given) + C=CC(=O)N1CCN(c2nc(OCC3CCCN3C)nc3c(F)c(-c4nc(N)cc(C)c4C(F)(F)F)c(Cl)cc23)C(C)C1 | inactive

Q) Which outcome did this test record for the molecule Nc1ccn(C2OC(CO)C(O)C2(F)F)c(=O)n1 (stereo not given) + C#Cc1c(F)ccc2cc(O)cc(-c3ncc4c(N5CC6CCC(C5)N6)nc(OCC56CCCN5CC(F)C6)nc4c3F)c12 ?
A) active

---

- Test system: 485176-168-R4-J1-PDC complex spheroid growth
- Procedure Text: Anticancer human tumor 485176-168-R4-J1-PDC cell line growth inhibition [RAS];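 also: spheroids exposed to compounds for seven days before readout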
- Condition Info: second compound 10 µM; first compound 1 µM; hits give low values
Output: class label from viability, T/C. Mapping: bottom end (below 60%), midrange (60% to below 70%), top end (70% or more)

Would you please look over these solved cases?
O=C(c1ccc(F)c(F)c1Nc1ccc(I)cc1F)N1CC(O)([C@@H]2CCCCN2)C1 + C#Cc1c(F)ccc2cc(O)cc(-c3ncc4c(N5CC6CCC(C5)N6)nc(OCC56CCCN5CC(F)C6)nc4c3F)c12 | bottom end
CC1(O)CCCC1n1c(=O)c(C(F)F)cc2cnc(NC3CCN(S(C)(=O)=O)CC3)nc21 (stereo not drawn) + C#Cc1c(F)ccc2cc(O)cc(-c3ncc4c(N5CC6CCC(C5)N6)nc(OCC56CCCN5CC(F)C6)nc4c3F)c12 | bottom end
CC(=O)OC12COC1CC(O)C1(C)C(=O)C(O)C3=C(C)C(OC(=O)C(O)C(NC(=O)OC(C)(C)C)c4ccccc4)CC(O)(C(OC(=O)c4ccccc4)C21)C3(C)C (stereo not drawn) + C#Cc1c(F)ccc2cc(O)cc(-c3ncc4c(N5CC6CCC(C5)N6)nc(OCC56CCCN5CC(F)C6)nc4c3F)c12 | bottom end

Q) Hi, small favor: classify C=CC(=O)Nc1cc(Nc2nccc(-c3cn(C)c4ccccc34)n2)c(OC)cc1N(C)CCN(C)C + C#Cc1c(F)ccc2cc(O)cc(-c3ncc4c(N5CC6CCC(C5)N6)nc(OCC56CCCN5CC(F)C6)nc4c3F)c12 by its viability, T/C when you get a moment.
A) midrange

Q) Which category does the recorded viability, T/C put CC(C)NCC(C(=O)N1CCN(c2ncnc3c2C(C)CC3O)CC1)c1ccc(Cl)cc1 (stereo not drawn) + C#Cc1c(F)ccc2cc(O)cc(-c3ncc4c(N5CC6CCC(C5)N6)nc(OCC56CCCN5CC(F)C6)nc4c3F)c12 in?
A) bottom end

Q) Lab note: sort C=CC(=O)N1CCN(c2nc(OCC3CCCN3C)nc3c(F)c(-c4nc(N)cc(C)c4C(F)(F)F)c(Cl)cc23)C(C)C1 (stereo not drawn) + C#Cc1c(F)ccc2cc(O)cc(-c3ncc4c(N5CC6CCC(C5)N6)nc(OCC56CCCN5CC(F)C6)nc4c3F)c12 into the matching viability, T/C band.
A) top end

Q) Could you place Nc1ccn(C2OC(CO)C(O)C2(F)F)c(=O)n1 (stereo not drawn) + C#Cc1c(F)ccc2cc(O)cc(-c3ncc4c(N5CC6CCC(C5)N6)nc(OCC56CCCN5CC(F)C6)nc4c3F)c12 in its proper category? Many thanks.
A) bottom end

Q) Lab note: sort Cc1nc(N2CCC3(CC2)COC(C)C3N)c(CO)nc1Sc1ccnc(N)c1Cl (stereo not drawn) + C#Cc1c(F)ccc2cc(O)cc(-c3ncc4c(N5CC6CCC(C5)N6)nc(OCC56CCCN5CC(F)C6)nc4c3F)c12 into the matching viability, T/C band.
A) top end

Q) Which class holds CCC(CC)c1cc(NC2CCC(N)C2)n2nccc2n1 (stereo not drawn) + C#Cc1c(F)ccc2cc(O)cc(-c3ncc4c(N5CC6CCC(C5)N6)nc(OCC56CCCN5CC(F)C6)nc4c3F)c12 ?
A) top end

Q) Form field 'band' for C[C@@H](NC(=O)c1ncnc(N)c1Cl)c1ncc(C(=O)Nc2cc(C(F)(F)F)c(Cl)cn2)s1 + C#Cc1c(F)ccc2cc(O)cc(-c3ncc4c(N5CC6CCC(C5)N6)nc(OCC56CCCN5CC(F)C6)nc4c3F)c12
A) top end

Q) Band of NC1c2ccccc2OC12CCN(c1cnc3c(N4CCCc5ncccc54)n[nH]c3n1)CC2 (stereo not drawn) + C#Cc1c(F)ccc2cc(O)cc(-c3ncc4c(N5CC6CCC(C5)N6)nc(OCC56CCCN5CC(F)C6)nc4c3F)c12 ?
A) midrange
